- System: MDA-MB-468 breast
- protocol-details: NCI tumour cell line growth inhibition, 48 h
Items are presented alongside their recorded TGI.
The reply should be a number in µM, with the unit left off.

Reference set, count: 5
| compound | target-of-assay | reported-metric | test-value |
| --- | --- | --- | --- |
| O=C(Nc1ccc(F)cc1)c1c(NC(=O)C(F)(F)F)sc2c1CCCCC2 | MDA-MB-468 breast | TGI | 4.85 |
| CC(C)c1ccc(C(=O)Nc2sc3c(c2C#N)CCC(=O)C3)cc1 | MDA-MB-468 breast | TGI | 2.4 |
| O=C(c1ccc2ncc(-c3nc(NC4CC4)ncc3F)n2c1)N1CCOCC1 | MDA-MB-468 breast | TGI | 4.34 |
| COC1CC2C=C(C)/C=C/C=C/C(=O)NC(c3ccccc3)C/C=C/CCC(O)CC(=O)C2=C1O (stereo not drawn) | MDA-MB-468 breast | TGI | 1.24 |
| COc1cc(/C=C\[N+](=O)[O-])ccc1OCc1ccccc1 | MDA-MB-468 breast | TGI | 3.26 |

// query Please report TGI for the following compound: ClC(Cl)c1nc(-c2cccnc2)n2nc(-c3ccccc3)cc2n1
// result 0.793

// query Please report TGI for the following compound: NC(=O)c1cc(Br)cc(C2CCCCC2)c1O
// result 29.2
